Data provenance is patent EP0087397A2.

assay: Acute toxicity; type: in vivo; settings: mouse, in vivo, iv, mice, e.v.; read-out: DL50 (the source's name)
Property: LD50; scope: individual compounds

{"columns": ["COMPOUND", "UNIT ABBREV", "LD50"],
 "data": [
  ["O=C(O)CNC(=O)CCS [MPCa]", "mg/kg", 3470],
  ["CC(S)C(=O)NCC(=O)O (stereo not drawn) [MP/A, alpha-mercaptopropionylamidoacetic acid]", "mg/kg", 2240]
]}

----------
Tested on: aerosol histaminic shock
Assay: Antibronchospasmic activity, aerosol histaminic shock
Type: in vivo
Conditions: 0.1 g/kg i.p.; histamine aerosol two hours after pretreatment
Text: […] The time was taken for the onset of the convulsions after having started administering the aerosol.
# Lookup of reported time for the onset of the convulsions keyed by entry
MEASURED ENDPOINT: time for the onset of the convulsions (s)

{"columns": ["COMPOUND", "UNIT ABBREV", "NUMERIC VALUE"],
 "data": [
  ["CC(S)C(=O)NCC(=O)O (stereo not shown)", "s", 200],
  ["O=C(O)CNC(=O)CCS [MPCa]", "s", 250],
  ["O=C(O)CNC(=O)CCS [MP, beta-mercaptopropionylamidoacetic acid]", "s", 210],
  ["CC(=O)N[C@@H](CS)C(=O)O", "s", 210]
]}

----------
experiment: Pharmacokinetics: urinary elimination, titrimetric method; format: in vivo, rats; conditions: urine, 800 mg/kg; rat, 0.8 g/kg rectal suppository, within the first five hours; read-out: cumulative amount in per cent eliminated in the urine

{"columns": ["ENTRY SMILES", "dose excreted at 5 h"],
 "data": [
  ["O=C(O)CNC(=O)CCS", "~12%"]
]}

----------
assay: Acute toxicity; assay type: in vivo; conditions: mouse, in vivo, ip, mice, i.p; read-out: DL50 (the source's name)

{"columns": ["COMPOUND", "UNIT ABBREV", "LD50"],
 "data": [
  ["CC(S)C(=O)NCC(=O)O (stereo not drawn) [MP/A, alpha-mercaptopropionylamidoacetic acid]", "mg/kg", 1280],
  ["O=C(O)CNC(=O)CCS [MPCa]", "mg/kg", 1710],
  ["CC(=O)N[C@@H](CS)C(=O)O [AC, N-acetylcysteine]", "mg/kg", 400]
]}
